As shown below, each of these compounds has a reported z-score value.
- TESTED_SYSTEM: Metabotropic glutamate receptor 8 (Rattus norvegicus) (UniProt P70579)
- Sequence (P70579 whole entry, looked up): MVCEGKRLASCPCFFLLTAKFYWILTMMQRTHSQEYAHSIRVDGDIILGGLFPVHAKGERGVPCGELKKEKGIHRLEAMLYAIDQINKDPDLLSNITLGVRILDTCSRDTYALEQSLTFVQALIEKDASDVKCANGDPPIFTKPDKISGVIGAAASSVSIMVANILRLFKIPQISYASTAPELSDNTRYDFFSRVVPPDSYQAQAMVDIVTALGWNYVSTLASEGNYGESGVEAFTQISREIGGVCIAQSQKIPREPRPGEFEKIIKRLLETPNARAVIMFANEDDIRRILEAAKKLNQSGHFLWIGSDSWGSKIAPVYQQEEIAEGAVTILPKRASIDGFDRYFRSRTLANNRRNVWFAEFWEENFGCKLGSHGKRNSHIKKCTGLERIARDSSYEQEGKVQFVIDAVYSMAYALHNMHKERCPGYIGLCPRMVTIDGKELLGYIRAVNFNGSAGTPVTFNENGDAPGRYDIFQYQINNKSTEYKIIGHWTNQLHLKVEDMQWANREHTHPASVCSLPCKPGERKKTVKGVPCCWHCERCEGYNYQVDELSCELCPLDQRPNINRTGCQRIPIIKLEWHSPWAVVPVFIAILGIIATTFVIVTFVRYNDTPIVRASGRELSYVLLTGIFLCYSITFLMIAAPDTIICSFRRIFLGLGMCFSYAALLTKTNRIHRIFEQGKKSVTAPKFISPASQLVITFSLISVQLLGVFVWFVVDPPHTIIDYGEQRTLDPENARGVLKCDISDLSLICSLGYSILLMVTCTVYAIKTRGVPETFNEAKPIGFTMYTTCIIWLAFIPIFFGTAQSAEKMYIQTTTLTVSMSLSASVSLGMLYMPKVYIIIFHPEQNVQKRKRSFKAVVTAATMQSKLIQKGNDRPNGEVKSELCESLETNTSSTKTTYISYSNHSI
- PROCEDURE_SUMMARY: mGluR8 Gi/Go-coupled signaling modulation – cell-based, rat, thallium flux, HTS, primary screen (AID 488969)
- SETTINGS: HEK293 rat mGluR8, GIRK (G protein-gated inwardly rectifying potassium channel) thallium flux, FluoZin2; at 10 µM; stronger effect = higher value; submaximal glutamate (EC20) added with thallium
Whole data set: some 110,000 compounds, median “z-score” near -0.1, cut for the highest 2% near 2. The full list was thinned out, with the highest values kept by preference.
MEASUREMENT_NAME: z-score

[[record]]
compound = "CC1CCCCC1NC(=S)Nc1ccc(SC(F)F)cc1 (stereo not drawn)"
result_number = 5.08

[[record]]
compound = "CC1CCN(S(=O)(=O)c2ccc(NC(=O)CN3CCN(C)CC3)cc2)CC1"
result_number = 0.193

[[record]]
compound = "O=C(NNC(=O)c1ccccc1Br)c1ccc(Cl)cc1"
result_number = 0.075

[[record]]
compound = "CC(C)(C)S(=O)(=O)c1nc2ccccc2s1"
result_number = 0.279

[[record]]
compound = "COCCn1c(SCc2nc3sc(C(=O)OC)c(C)c3c(=O)[nH]2)nc2ccccc21"
result_number = 0.877

[[record]]
compound = "Cc1nc2ccc(S(=O)(=O)NC(C(=O)NCc3ccc4c(c3)OCO4)C(C)C)cc2s1 (stereo not drawn)"
result_number = -0.0773

[[record]]
compound = "CC1CCN(C(=S)Nc2ccc(SC(F)F)cc2)CC1"
result_number = 0.000321

[[record]]
compound = "O=C(CN1C(=O)CCS(=O)(=O)c2ccccc21)NCc1ccccc1"
result_number = 0.305

[[record]]
compound = "CCSC1=N/C(=C\\c2ccc(OC)cc2)C(=O)N1"
result_number = -0.286

[[record]]
compound = "CC1CC(C)CN(C(=S)Nc2ccc(SC(F)F)cc2)C1 (stereo not drawn)"
result_number = 6.63

[[record]]
compound = "O=C(CSc1nnnn1-c1cccnc1)Nc1ccc(OCc2ccccc2)cc1"
result_number = -0.183

[[record]]
compound = "FC(F)Sc1ccc(NC(=S)NC2CCC(NC(=S)Nc3ccc(SC(F)F)cc3)CC2)cc1 (stereo not drawn)"
result_number = -0.2

[[record]]
compound = "O=C(Cn1nnc(-c2ccccc2)n1)NCc1ccco1"
result_number = 0.185

[[record]]
compound = "CN(C(=S)Nc1ccc(SC(F)F)cc1)c1ccc(O)cc1"
result_number = 0.142

[[record]]
compound = "FC(F)Sc1ccc(NC(=S)NCC2CCCCC2)cc1"
result_number = -0.233

[[record]]
compound = "CC1CCN(c2nc3c(c(=O)[nH]c(=O)n3C)n2CCSc2nc3ccccc3o2)CC1"
result_number = 0.0449

[[record]]
compound = "Fc1ccc(/C=C2\\CCCC3=C2NC(=S)NC3c2ccc(F)cc2)cc1 (stereo not drawn)"
result_number = -0.0195

[[record]]
compound = "CN1CCC(N(C)C(=S)Nc2ccc(SC(F)F)cc2)CC1"
result_number = -0.0288

[[record]]
compound = "O=C(c1ccc(Br)o1)N1CCCc2ccccc21"
result_number = -0.269

[[record]]
compound = "Cc1cc(C(F)(F)F)nc(SCC(=O)NC2=NC(=O)C(C)S2)n1 (stereo not drawn)"
result_number = 0.475

[[record]]
compound = "CCS(=O)(=O)c1ccc(S(=O)(=O)CC)s1"
result_number = -0.137

[[record]]
compound = "CCn1c(SCc2nc3sc(C(=O)O)c(C)c3c(=O)[nH]2)nc2ccccc21"
result_number = -0.449

[[record]]
compound = "CCOC(=O)c1c(-c2ccc(OC)cc2)nc2nonc2c1N"
result_number = 0.0715

